koff values, listed per item
ASSAYED SYSTEM: pWT PDZ2 (pseudo wild type SAP97 PDZ2, I342W/C378A) (Homo sapiens, UniProt Q12959, C378A/I342W)
Construct: constituting SAP97 residues 311–407 and the mutations I342W and C372A; His-tagged lipoyl protein domain (N, cleaved yes); made in house
Sequence (Q12959 311-407, stated change not applied): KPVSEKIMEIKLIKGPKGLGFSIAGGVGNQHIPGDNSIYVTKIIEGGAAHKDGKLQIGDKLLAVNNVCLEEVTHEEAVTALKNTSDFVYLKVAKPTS
TEST PROTOCOL: Stopped-flow binding kinetics, peptide with pWT PDZ2
RUN CONDITIONS: displacement of pre-formed complex (1 µM PDZ, 2 µM peptide) with 100 and 150 µM dansylated RRRETQV peptide, pH 7.5, 10 °C, value ± standard error
Ends that are not written are not given here.

# SUBSTANCE, koff [s⁻¹]
rows = [
    ("Ac-RRRETQV [RRRETQV, reference compound]", 3.2),
    ("Ac-PGKETQL [PGKETQL]", 51),
    ("Ac-VSKETPL [VSKETPL]", 154),
    ("Ac-EKKHTLL [EKKHTLL]", 112),
    ("Ac-SARSTDV [SARSTDV]", 26),
    ("Ac-NSKETVV [NSKETVV]", 8.6),
    ("Ac-KRKETLV [KRKETLV]", 3),
    ("Ac-RSISTDV [RSISTDV]", 26),
    ("Ac-YRRESAI [YRRESAI]", 87),
    ("Ac-TSRETDL [TSRETDL]", 71),
]

Source listed as paper PMC5046105.
